- System: MALME-3M melanoma
- method: NCI tumour cell line growth inhibition, 48 h
endpoint: TGI

These solved cases illustrate the format of a correct answer.
1. CC1(C)N(OC2CCCCO2)C(c2ccccc2)C(c2ccccc2)=[N+]1[O-] (stereo not drawn)    > 100 µM
2. CC1(C)CC(=O)C(C(c2cccc(O)c2O)C2C(=O)CC(C)(C)CC2=O)C(=O)C1    > 100 µM

// below: TGI requested for another molecule
Q. Fill in the blank: the reported TGI of CCCCC(NC(=O)CC)C(=O)O (stereo not drawn) is ____.
A. > 100 µM

* * *

- Tested on: NCI-H460 lung
- method: NCI tumour cell line growth inhibition, 48 h
endpoint: TGI

Please review the following examples before continuing.
1) COc1cc(C2c3cc4c(cc3[C@H](NC(=O)c3cccs3)C3COC(=O)[C@H]23)OCO4)cc(OC)c1OC (some centres undefined)    10.8 µM
2) C/C(=N\Nc1ccc2ccccc2n1)c1ccccc1O    > 100 µM
3) CN(C)c1ccc(/C=C(\C#N)c2cc3ccccc3n2C)cc1    4.4 µM
4) COc1cc2c(c(N)c1OC)C(=O)/C(=C/c1cc(C)c(O)c(C)c1)C2    > 57.8 µM
5) COc1cc(C2C(Cl)C(=O)N2NC(=O)c2ccc(NC(C)=O)cc2)cc(Br)c1O (centres undefined)    > 100 µM
6) COCC1C(=O)c2cc3c(cc2C12C=CC1(C=C2)OCCO1)OCO3 (centres undefined)    31.9 µM

For each entry beneath this line, provide reported TGI.
1. CCc1ccc(CCC(=O)Nc2ncc(Cc3cc(Cl)ccc3Cl)s2)o1
2. COc1cc(C2SCC(=O)N2c2ccc(-c3ccc(-n4c(-c5ccccc5)nc5ccccc5c4=O)cc3)cc2)ccc1O (centres undefined)
3. Cc1cccc2nc3n(c12)C(=O)c1ccccc1-3
4. COc1ccc(/C=C/C(=O)c2nc3ccccc3[nH]2)cc1
5. C=CCCC(O)c1ccc(C(O)CCCCCCCCCCCC)o1 (centres undefined)
6. CC(=O)OCc1cccc(O)c1C(=O)CCC=C(C)C

A.
1. > 50 µM
2. > 100 µM
3. > 100 µM
4. 47.5 µM
5. > 100 µM
6. > 100 µM

Batch request: TGI for each of the following molecules.
1. CC(C)c1ccc2c(N=Nc3ccc(S(N)(=O)=O)cc3)c(O)[nH]c2c1
2. CC(=O)c1c2c(cc3c1CC1(Cc4cc5c(cc4C1=O)CCC5)C3)CCC2 (centres undefined)

A.
["> 16.4 µM", "> 100 µM"]
